- EXPERIMENTAL_TARGET: GPR40 (FFAR1) (Homo sapiens, UniProt O14842)
- Sequence (O14842 whole entry): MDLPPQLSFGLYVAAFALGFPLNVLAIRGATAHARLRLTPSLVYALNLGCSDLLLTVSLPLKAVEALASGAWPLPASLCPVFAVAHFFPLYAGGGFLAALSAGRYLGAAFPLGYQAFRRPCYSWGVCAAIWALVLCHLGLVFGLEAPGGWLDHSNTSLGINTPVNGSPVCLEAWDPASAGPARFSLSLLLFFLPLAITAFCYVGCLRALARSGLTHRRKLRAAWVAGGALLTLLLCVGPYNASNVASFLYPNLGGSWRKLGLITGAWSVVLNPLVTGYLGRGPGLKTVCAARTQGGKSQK
- TEST_DETAILS: PathHunter β-arrestin assay (Eurofins Discovery), GPR40
- Assay type: cell-based
- TEST_SETTINGS: dose-response; oleic acid = 100

[
  {
    "MOLECULE": "CCCCCCCCC[C@H](C)/C=C(/C)C/C(C)=C/[C@H](C)CC(=O)O",
    "MEASUREMENT_UNIT": "%",
    "GPR40 max. efficacy": 75
  },
  {
    "MOLECULE": "CCCCCCCC/C=C\\CCCCCCCC(=O)O [oleic acid, reference compound]",
    "MEASUREMENT_UNIT": "%",
    "GPR40 max. efficacy": 100
  },
  {
    "MOLECULE": "O=C(O)CCc1ccc(NCc2cccc(Oc3ccccc3)c2)cc1 [GW9508, reference compound]",
    "MEASUREMENT_UNIT": "%",
    "GPR40 max. efficacy": 229
  },
  {
    "MOLECULE": "CCCCCCC[C@H](C)/C=C(/C)C/C(C)=C/[C@H](C)CCCC(=O)O",
    "MEASUREMENT_UNIT": "%",
    "GPR40 max. efficacy": 68
  },
  {
    "MOLECULE": "CCCCCCCCC[C@H](C)/C=C(/C)C/C(C)=C/[C@@H](C)CC(=O)O",
    "MEASUREMENT_UNIT": "%",
    "GPR40 max. efficacy": 123
  },
  {
    "MOLECULE": "CCCCCCCCC[C@@H](C)/C=C(/C)C/C(C)=C/[C@H](C)CC(=O)O",
    "MEASUREMENT_UNIT": "%",
    "GPR40 max. efficacy": 109
  },
  {
    "MOLECULE": "CCCCCCC[C@@H](C)/C=C(/C)C/C(C)=C/[C@@H](C)CCCC(=O)O",
    "MEASUREMENT_UNIT": "%",
    "GPR40 max. efficacy": 87
  },
  {
    "MOLECULE": "CCCCCCC[C@@H](C)/C=C(/C)C/C(C)=C/[C@H](C)CCCC(=O)O",
    "MEASUREMENT_UNIT": "%",
    "GPR40 max. efficacy": 95
  }
]

###

- EXPERIMENTAL_TARGET: GPR120 (Homo sapiens)
- Sequence (Q5NUL3 whole entry): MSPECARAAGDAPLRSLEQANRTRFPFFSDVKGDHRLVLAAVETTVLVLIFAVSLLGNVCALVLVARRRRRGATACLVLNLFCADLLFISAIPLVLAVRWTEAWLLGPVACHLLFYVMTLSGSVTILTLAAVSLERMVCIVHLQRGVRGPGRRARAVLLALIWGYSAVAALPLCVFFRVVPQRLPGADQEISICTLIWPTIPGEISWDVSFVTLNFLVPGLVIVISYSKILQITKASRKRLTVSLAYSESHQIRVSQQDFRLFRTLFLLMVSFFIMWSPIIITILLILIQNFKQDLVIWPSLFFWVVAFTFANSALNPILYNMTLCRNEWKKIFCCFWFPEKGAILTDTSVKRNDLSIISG
- TEST_DETAILS: PathHunter β-arrestin assay (Eurofins Discovery), GPR120
- Assay type: cell-based
- TEST_SETTINGS: dose-response, β-arrestin assay; read-out: GPR120 EC50 measured
pEC50: −log10 of the molar value.
Listed below: pEC50 values for each entry.

[
  {
    "SMILES_DATA": "CCCCCCC[C@H](C)/C=C(/C)C/C(C)=C/[C@H](C)CCCC(=O)O",
    "INEQUALITY_SYMBOL": "=",
    "pEC50": 5.96
  },
  {
    "SMILES_DATA": "CCCCCCCCC[C@H](C)/C=C(/C)C/C(C)=C/[C@H](C)CC(=O)O",
    "INEQUALITY_SYMBOL": "<",
    "pEC50": 4.33
  },
  {
    "SMILES_DATA": "CCCCCCC[C@@H](C)/C=C(/C)C/C(C)=C/[C@H](C)CCCC(=O)O",
    "INEQUALITY_SYMBOL": "=",
    "pEC50": 5.59
  },
  {
    "SMILES_DATA": "CCCCCCCCC[C@@H](C)/C=C(/C)C/C(C)=C/[C@H](C)CC(=O)O",
    "INEQUALITY_SYMBOL": "<",
    "pEC50": 4.29
  },
  {
    "SMILES_DATA": "CCCCCCCCC[C@H](C)/C=C(/C)C/C(C)=C/[C@@H](C)CC(=O)O",
    "INEQUALITY_SYMBOL": "<",
    "pEC50": 4.38
  }
]

All figures here come from paper PMC10906247.
